Recorded values, source the DeepSol protein solubility set.

assay: soluble on expression in E. coli; label from the status in PepcDB or PDB records

| ITEM SEQUENCE | soluble on expression in E. coli |
| --- | --- |
| MSKTAIIFPGQGAQKVGMAQDLFNNNDQATEILTSAANTLDFDILETMFTDEEGKLGETENTQPALLTHSSALLAALKNLNPDFTMGHSLGEYSSLVAADVLSFEDAVKIVRKRGQLMAQAFPTGVGSMAAVLGLDFDKVDEICKSLSSDDKIIEPANINCPGQIVVSGHKALIDELVEKGKSLGAKRVMPLAVSGPFHSSLMKVIEEDFSSYINQFEWRDAKFPVVQNVNAQGETDKEVIKSNMVKQLYSPVQFINSTEWLIDQGVDHFIEIGPGKVLSGLIKKINRDVKLTSIQTLEDVKGWNEND | not soluble |
| MTSEQNIQTFRDFLTQYNLVAEQCFNSCVNEFGSRTVSGKEESCANNCLDKFLKMTQRVSQRFQEHQLLNAQANGAAIKVENGGKINKIQ | not soluble |
| MGSDKIHHHHHHMRHTAVLLISCPDQRGLVAAIADFLLAHRANILHADQHQDAELKLFLMRVEWDLAGFNLDLRDFATAFQPIAERFGMTWRLAESSRKPRMAVFVSKFDHCLADLLYRYQSGELHCELPIILSNHEDTRWLADAYRVPYQHMAVTKESKHETEQIQLAILRDQKIDFIVLARYMQVLSGDFIRHFPNRIINIHHSFLPAFHGAKPYHRAFERGVKLIGATAHYVTETLDDGPIIEQDVARISHRDHIDDLIHKGADLEKVVLSRAVKWHLDNRVLVYANKTVVFD | not soluble |

---

assay: soluble on expression in E. coli; label from the status in PepcDB or PDB records

| ITEM SEQUENCE | soluble on expression in E. coli |
| --- | --- |
| MSTEQPERADRLLAAAQRRGHERVEARDFGEAILAEVHCPRYLDFLKNGYAQWRALPGASQEITPHVHPPREESGYPVSIIGRAGFHIADTSSPMGPHTWEAALAASHSACTAAQLVIEGAPAAYSLSRPPGHHATRDRAGGFCFLNHTAVAAQWLRHHVARVAILDVDVHHGNGTQDIFYERDDVLHVSLHADPAYFYPFFTGYAQETGRGIGAGCNLNLPLPIGTDDEAFLAALRIACRRVLDFKPDVVVVALGLDTYEGDPLNAFRITTPGFARIGQAIAGLALPTVLVQEGGYLSDELGENLATFLDGFCQHLEHHHHHH | not soluble |
| MGSDKIHHHHHHMSSLTKMLLILDLFSVDKPIWSADEIIQYCGHSRPTGYRYVKELCDAGLLRRAEGGYSLGPRVIELDYYIRQCDPLLIACRPVMVRVAQESGCDVLLASMYGTKIMAVHQELAHETGQIAFGRGRPMPLFRGGGSKVLLASMTASQLKKLYDRYGAEIAEAGLGATWADFRKQMLKYRNDGHVVSIGELDPNAAGVAIPIPVGDALDPAALVILTTRSRFDLMEKALLVDMAMNAARQIETSMRGNREVQAKALLLS | not soluble |

---

assay: soluble on expression in E. coli; label from the status in PepcDB or PDB records

| ITEM SEQUENCE | soluble on expression in E. coli |
| --- | --- |
| MGSDKIHHHHHHVTILSPKAVPAPAASDAYGFGDRLTADFPSQINVDVTEVCNLACVHCPHPQFKKSVHYAGRMLDPALNDKMVEEVRDHGQGRVGYIRYTAAGEPMAHPAIFPMLAKAVARSGTTVSLTTNGMLLDEGRRARLLETGIHLIDISIDAFLPETYARVRVGGDLERVRGGVLRLMEGAARRVDPPKIVVSFVEQPFNQGETADFERFWKENGAAYVVIRRLHSCAGAAQDLAATLRVEQGETRRPCLYPWERIVLNPSGQLSFCPADWAHGAAIAEYRDTTIREVWQGPFYRALREAHLTNSYANHGFCGQCPDWASTRWPKQGRSYADMVQDFKETE | not soluble |
| MKISIICPLYNAENYIMSLHNKILEQEKPEGTEVEVSYVLTRCKDKTEEMLKNMNLQYTLIEPKDFSHSKTREMMAFKSTGDIIVFISQDVMMKNNFWLKNLVQPIIDGECEASFSRQLCTNNTIEKYIREKNYPEESRVVSKKDINKYGLLTFFYSDASSAVKTSVYKELNGYDNKRLLINEDMYFAEKLIQAGYRIKYCSDSEVYHSHVFTLKSLYERYFDTGVFFRQNSQFLNYKGNKSGKDLAIHVLKRSLEDKNFKVTLNILPNFGARFIGSFLGKKYESLPRSFVMASSMSKKVYSQILEHHHHHH | soluble |
| MDAQYDISFADVEKAHINIRDSIHLTPVLTSSILNQLTGRNLFFKCELFQKTGSFKIRGALNAVRSLVPDALERKPKAVVTHSSGNHGQALTYAAKLEGIPAYIVVPQTAPDCKKLAIQAYGASIVYCEPSDESRENVAKRVTEETEGIMVHPNQEPAVIAGQGTIALEVLNQVPLVDALVVPVGGGGMLAGIAITVKALKPSVKVYAAEPSNADDCYQSKLKGKLMPNLYPPETIADGVKSSIGLNTWPIIRDLVDDIFTVTEDEIKCATQLVWERMKLLIEPTAGVGVAAVLSQHFQTVSPEVKNICIVLSGGNVDLTSSITWVKQAERPASYQSVSVHHHHHH | soluble |
| MKKHDGIIVLLSGGMDSATLLWLAKREFKKVYAISFDYGQRHKVELKYAKELAKLAEVEDHFIVQVPFYTSLKGSALIDESVEVPKGEYPENEPPVTTVPMRNLIFLSIASAFADNLEVNYIGIGVHALDTPYPDCRPEFITAAEAAINAGSTFVAKKKERMHVYAPFLGMSKRDIALLGKELGVPFEKTYSCYMGTEPPCGECPTCIQREEALRGIL | soluble |
| MLISKHEERVKSILSARMENGNLRSRENTQVEFKQSFNKGNIAIYAKTMAAFSNNSGGYIIFGIKDSPRSIIGLQNSNFENIQQEDLTDSINNLFSPSINELGSFILKEKEINSNGDVIIVQKIIGIYTEESNIKPVIAQKNNSSEKIVNGDIFYRYRARTEKIKYAEMEQIINCRMKQERDSLFKVFEFIRNNGATNLGIVDYNNGKLSTPYGVDVVLEKNLIAKLLKKAKFIKEGSFSENEGIPVIKVTGNINLAEEVPVPLENLDETYPYIQKQLAEKLNITPQKLYALIYFKMKESKKYHLEITTSKTNKTHKFSKFALLFLKEKIIELDENKNELEHHHHHH | not soluble |

---

test: soluble on expression in E. coli; label from the status in PepcDB or PDB records

| ITEM SEQUENCE | soluble on expression in E. coli |
| --- | --- |
| MRKEEVLALLRSRWPELCALGVAELYLFGSLARGEARPRSDVDLLVAFATPPGFEGYWRVKEFLESLLGRPVDLVMKGALKPWAVSEVLGEAVRVA | soluble |
| MAQTTINEQTLVNEQRLLAYDCFQNTNKVGLLSALEYLDFVNHLVKSNQIKYLLVPSASQTVYQHVFFDHFRFLSFDNNLLSGFGLAIRLHKEAETVFMLVEKTKQTETEIKKLLEAVKQFSGLKLVVLLVNSPFENKRTKLSYEIVKIIKKHGYQYKRYCRKNFEKKFFNTWNHQKRKQKTKNNLFFVELNSQFAFGTSMANSNSFDLSFTSFKERFNTENNLDIDVHFNVPHKYLLKNLESIKHHLQIDNNTIWKQAFINFAGQLLLYFENLQVFAQEASTLQVNAIVIKQDAYFIVEVMKGYNYDNNCICLLEANKDQNVGLTTASTNTLIGDIKQYEPCFFIEK | soluble |
| MGSDKIHHHHHHSDAGKDRRKKQKQKERQEDDDNNDEPAGGSEMGESGKAKDEKERTSVLEKQAGKKGDDESSSSEEDKEDEDEKKDNSTVIIREENEIIKAEKELDEEKVDQFRQSRVLRFTRSADEARVLPTDAAKFKRDTITQTLKSKELNDGVQLPLDKKPTATASTN | not soluble |
| MTEGLAVELAGLRSFSIVMPAYNVVTQRGERIFRETLESIAASCRYLQQHFPYTPEGELILISDGSTDRTCDVAMAGWPNAVPLQLVGLPTNVGIAAARNIGVRLAKGEVIFFCDADDLYRPEHLFLALSVLNQPLPEPYAPAYFGAVRTGVYCRDRLHPYWHKSLEQTLVLNLAVRREVHEFIGGFPEDEVFRQFRYGAEDVAYAYWLHQFCHTARLEQRTVEYRRFPNSVFDRQLKKFQAAPGTVADDLDEGDRQQEAQIRQIMATRLQELQAKAAQGVALEHHHHHH | not soluble |
| MGSDKIHHHHHHMSGIEAFSPKGMLHECWSAQANDYAIVCGWALQGKTFLVGDVAGGLYAFEGISGKLIWQIKDIHKGGLLAMSIHPNGKTFATAGQDGHVNIWESQKGTSTKTLELGKGWVEHIKWSPDGKFLAVVFTKYVYVFDDKGQEHWRSEEHPSTVSAIAWSNSNELATACYGQVTFFDVVNDKINQKLEWRGSLVSMVLSPDGDIVACGSQDNSVHFWRRSTDQDSEMTGYPGKPSHLAFDQTGTVLATGGSDRVTVWSFQGDGPEGTVPGELMLHTEPISCLAFSHSGMLLASGSRDGSVFSWFLQKDGQGDPVGGAFAGDLVSQIAWHPDDTALAAINANGGITVWEFKVRTKTSPQGFG | not soluble |
| MGSDKIHHHHHHMEIDPRAQLIEWESSSLGVKGRMYVYTPPEYHPHGPALPVVYLLRGHEREWVNRREDDSRMGSAIDVYERVRARGEIGPLILAMPGLASTDNRIPGLLADFAAPHLTDAEGIGSGRFATFFFEEVLPLLEREFHAHPQARAITGFSLGGYMAVKAVALHPELFVSVSAYDGSFPYASDNGRRSRRYDTLFTASMFDPALGRPRDPDRLRDHNPICLLMRANRAALRRITWMIQYGPEHIEPWGANFYRGEYLLRALATLGIANATPIAALPDGAHTWAVADRHLEQALPLHYRAFERVMKSDP | not soluble |
